# experiment summary: yeast display, Sf9 membrane polyspecificity reagent, FACS + sequencing; frameworks hold sequencing errors
reported metric: polyreactivity (PSR sort gate)

# example entries with known answers
>  <macromolecule sequence>
QVQHVESGGGLVQAGGSLRLSCAASGGTFGDYAMGWSRQAPGKEREFVASITRSVSNTYYADSVKGRFTISRDNAKNTVYLQMNSLKPEDTAVYYCNADRWYPWRYIMDYWGQGTQVTVSS

>  <polyreactivity (PSR sort gate)>
low polyreactivity

$$$$
>  <macromolecule sequence>
QVQLVESGGGLVQAGGSLRLSCAASGRIFGKYVMGWYRQAPGKERELVAAIRSSGGSTYYADSVKGRFTISRDNAKNTVYLQLNSLKPEDTAVYYCAKRLHYSAPRYTENDYWGQGTQVTVSS

>  <polyreactivity (PSR sort gate)>
high polyreactivity

$$$$
>  <macromolecule sequence>
QVQLVESGGGLVQAGGSLRLSCAASGSIFYRYAMGWYRQAPGKERELVATISSGGRTYYADSVKGRFTISRDNAKNTVYLQMNSLKPEVTAVYYCAAKRFSSPYWEYYWGQGTQVTVSS

>  <polyreactivity (PSR sort gate)>
high polyreactivity

$$$$
>  <macromolecule sequence>
QDQLVESGGGLVQAGGSLRLSCAASGSTFVGNAMGWYRQAPGKERELVAAISRTGGSTYYADSVKGRFTISRDNAKNTVYLQMNSLKPEDTAVYYCAARRYDIRYYYVTYRPPKMYYWGQGTQVTVSS

>  <polyreactivity (PSR sort gate)>
high polyreactivity

$$$$

Input line: So what's the measured polyreactivity (PSR sort gate) for this one? `QVQLVESGGGLVQAGGSLRLSCAASGRTIDPNAMGWYRQAPGKERELVAAITRTGVRTYYADSVKGRFTISRDNAKNTVYLQMNSLKPEDTAVYYCNRYGARSNDYWGQGNQVTVSS`
Output line: low polyreactivity

* * *

# experiment summary: yeast display, Sf9 membrane polyspecificity reagent, FACS + sequencing; frameworks hold sequencing errors
reported metric: polyreactivity (PSR sort gate)

>  <macromolecule sequence>
QVQLVESGGGLVQAGGSLRLSCAASVIIFQVYAMGWYRQAAGKERELVAAITRRGASTYYADSVKGRFTISRDNPKNTDYLQMNSLKPEETAVYYFNARAYYRLYKSKLGYWGQGTQVTVSS

>  <reported metric>
polyreactivity (PSR sort gate)

>  <observed>
high polyreactivity

$$$$
>  <macromolecule sequence>
QVQLVESGGGLVQAGGSLRLSCAASGRIFYYNGMGWYRQAPGKERELVAAIRWSGGSTRYADSVKGRFTISRDNAKNTVYLQMNSLKPEDTAVYYCAADGFYRWYPYKRYQFYYWGQGTQVTVSS

>  <reported metric>
polyreactivity (PSR sort gate)

>  <observed>
high polyreactivity

$$$$

* * *

# experiment summary: yeast display, Sf9 membrane polyspecificity reagent, FACS + sequencing; frameworks hold sequencing errors

>  <macromolecule sequence>
QVQLVESGGGLVQAGGSLRLSCAASGRIMPFYAMGWYRQAPGKERELVATISWTSDSTYYADSVKGRFTISRDNAKNTVFLQMNSLKPEDTAVYYCAREYTYTYASTVIYDHWGQGTQVTVSS

>  <polyreactivity (PSR sort gate)>
low polyreactivity

$$$$
>  <macromolecule sequence>
QVQLEESCGGLVQAGGSHRLSCAASGSTIYNNAMGWYRQAPRKERELVAAISSGGGITYYADSVKGRFTISRDNAKNSVYLQMNSLKPEDTAVYYCNARRIYLGYNYWGQGTQVTVSS

>  <polyreactivity (PSR sort gate)>
high polyreactivity

$$$$
>  <macromolecule sequence>
QVQLVESGGGLVQAGGSLRLSCAASGSTFPLYAMGWYRQAPGKEREFVAAIRWIGGSTYYADSVKGRFTISRDNAKNTVYLQMNSLKPEDTAVYYCAADYVVSAFDYWGQGTQVTVSS

>  <polyreactivity (PSR sort gate)>
low polyreactivity

$$$$
>  <macromolecule sequence>
QVQLVESGGGLVQAGGSLRLSCAASARIFKTYAMGWYIQAPGKERELVATITWSGGSTYADSVKGRFTITRDNAKNTVYLQMNSLKPEDTAVYYCAAGRTYYSPGYRSYSGYDYWGQGTQVTLSS

>  <polyreactivity (PSR sort gate)>
high polyreactivity

$$$$

* * *

# experiment summary: yeast display, Sf9 membrane polyspecificity reagent, FACS + sequencing; frameworks hold sequencing errors
reported metric: polyreactivity (PSR sort gate)

# example entries with known answers
>  <macromolecule sequence>
QVQLVESGGGLVQAGGSLRLSCAASGNILLFNAMGWYRQAPGKERELVATINQSGGRTYYADSVKGRFTISRDNAKNTVYLQMNSLKPEDTAVYYCNAPGSPVVQQPGYYWGQGTQVTVSS

>  <observed>
low polyreactivity

$$$$
>  <macromolecule sequence>
QVQLVESGGGLVQAGGSLRLSCAASGSTFVTYTMGWYRQAPGKEREFVATISRSGCSTYYADSVKGRFTISRDNAKNTVYLQMNSLKPEDTAVYYCAAVRLVISKYWYIPYDYWGQGTQVTVSS

>  <observed>
low polyreactivity

$$$$
>  <macromolecule sequence>
QVQLVESGGGLVQAGGTLRVSCAASGSTFTTNAMGWSRQAPGTERELFATISGGGSTYYADSVQGRFTISRDNAKNTVYLQMNSLKPDDTAVYYCATDVQVPGIGRSVYAYEYLGQGTQVTVSS

>  <observed>
low polyreactivity

$$$$
>  <macromolecule sequence>
QVQLVESGGGLVQAGGSLRLSCAASGRTFTQYAMGWYRQAPGKERELVAAIDYRGSRTYYADSVKGRFTISRDNAKNTVYLQMNSLKPEDTAFYYCNTVHRFGTYDYWGQGTQVTVSS

>  <observed>
high polyreactivity

$$$$
>  <macromolecule sequence>
QVQLVESGGGLVQAGGSLRLICAASGIIFNYNAMGWYRQAPGNERELVATISSGDSTNYADSVKGRFTISRDNAKNTVYLQMNSLKPEDTAVYYCAAESPSVFEGYAQLYIILEDYWGQGTQVTVSS

>  <observed>
low polyreactivity

$$$$

Input line: So what's the measured polyreactivity (PSR sort gate) for this one? `QVQLVESGGGLVQAGGSLRLSCAASGSIFDFYAMGWYRQAPGKERELVAAINRGGSTYYADSVKGRFTISRDNAKNTVYLQMNSLKPEDTAVYYCAASYFYWRANRGPRYYWGQGTQVTVSS`
Output line: high polyreactivity

Input line: So what's the measured polyreactivity (PSR sort gate) for this one? `QVQLVESGGGLVQAGGSLRLSCAASGSIFYVYAMGRYRQAPGKERELVASINKSGGSTYYADSVKGRFTISRDNAKNTVYLQMNSLKPEDTAVYYCAARTGWPRVGFQYPAHVGFDYWGQGTQVTVSS`
Output line: low polyreactivity

* * *

# experiment summary: yeast display, Sf9 membrane polyspecificity reagent, FACS + sequencing; frameworks hold sequencing errors
reported metric: polyreactivity (PSR sort gate)

>  <macromolecule sequence>
QVQLVESGGGLVQAGGSLRLSCAASGFTFSLYAMGWYRQAPGKERELVASIDSDGVSTYYADSVKGRFTISRDNAKNTVYLQMNSLKPEDTAVYYCAADFWWGYISGPVRGRGYYWGQGTQVTVSS

>  <reported metric>
polyreactivity (PSR sort gate)

>  <observed>
low polyreactivity

$$$$
>  <macromolecule sequence>
QVQLVESGGGLVQAGGSLRLSCAASGFTFKYYAMGWYREAPGKERELVAAISLTGGSTYYADSVKGRFTISRDNAKNTVYFQMHSLIPEDTAVNYCNAVQGRQRGWEGPYGYWGQGTQVTVST

>  <reported metric>
polyreactivity (PSR sort gate)

>  <observed>
high polyreactivity

$$$$
>  <macromolecule sequence>
QVQLVESGGGLVQAGGSLRLSCAASGLTFTVYTMVWYRQAPGKERELVATNSWSDGRTYYADSVKGRFTISRDNAKNTVYLQMNSVKPEDTAVYYCATESITWYYFKHEYWGQGTQVTVSS

>  <reported metric>
polyreactivity (PSR sort gate)

>  <observed>
high polyreactivity

$$$$
>  <macromolecule sequence>
QVQLVESAGGLVQAGGSLRLSCAASARTFGAYAMGWYRQAPGNERELVATITVSGGSTYYADSVKGRFTISRENAKNTVYLPMNSLKPEDTAVYYCAAAYDWWQFYSWTIAYDYWGQGTQVTVSS

>  <reported metric>
polyreactivity (PSR sort gate)

>  <observed>
low polyreactivity

$$$$

* * *

# experiment summary: yeast display, Sf9 membrane polyspecificity reagent, FACS + sequencing; frameworks hold sequencing errors

>  <macromolecule sequence>
QVQLVESGGGLVQAGGSLRLSCAASGRIFIYNAMGWYTQAPGKERELVAAINRSGVSTHYADSVKGRFTISRDNAKNSVYLQMNSLKPEDTAVYYCARTVYGARSYDYWGQGTQVTVSS

>  <polyreactivity (PSR sort gate)>
low polyreactivity

$$$$
>  <macromolecule sequence>
QVQPQESGGGLVQAGGSLRLSCAASGTIFAFQTMGWYRQAPGKERELVASITYGSSTNYADSVKGRFTISRDNAKNTVYLQMNSLKPEDTAVYYCAKSAQRYSYRYYYWGQGTQVTVSS

>  <polyreactivity (PSR sort gate)>
high polyreactivity

$$$$
>  <macromolecule sequence>
QVKLVESGGGLVQAGGSLRLSCAASGSTLRYYGMGWYRQAPGKERELVAAISSGGITNYADSVKGRFTISRDNAKNTVYLQMNSLKPEDTAVYYCAAYYTYTWFGYWGQGTQVTVSS

>  <polyreactivity (PSR sort gate)>
low polyreactivity

$$$$
>  <macromolecule sequence>
QVQLVESGGGLVQAGGSLRLSCAASGSTFGRYAMGWYRQAPGKERELVAAIDWSGGSTYYADSVKGRFTISRDNAKNTVYLQMNSLKPEDTAVYYCAAEAYSQYRTPGFDYYYWGQGTQVTVSS

>  <polyreactivity (PSR sort gate)>
high polyreactivity

$$$$
